Value source: paper PMC4535766

- protocolNotes: Cytotoxicity on macrophages infected with L. donovani
- Type: cell-based, mouse
- protocolConditions: mouse, macrophages infected with L. donovani; read-out: IC50 Cytotox. mac.inf.
Counter-ions that a name gives are not always drawn.
Consider the following compounds; for each one, report its IC50 at 96 h.
Enter your answer as a number in µM; do not include the unit.

Problem: What value of IC50 at 96 h has been recorded for this entry: OCCN1CCN(CCCN2c3ccccc3Sc3ccc(C(F)(F)F)cc32)CC1 [Fluphenazine]
Result: 22.9

Problem: What value of IC50 at 96 h has been recorded for this entry: CO[C@H]1/C=C/O[C@@]2(C)Oc3c(C)c(O)c4c(O)c(cc(O)c4c3C2=O)NC(=O)/C(C)=C\C=C\[C@H](C)[C@H](O)[C@@H](C)[C@@H](O)[C@@H](C)[C@H](OC(C)=O)[C@@H]1C [Rifamycin SV (Sodium salt), Rifamycin SV]
Result: 41.6

----------
- System: T. b. rhodesiense strain STIB 900, trypomastigotes
- protocolNotes: In vitro activity against T. b. rhodesiense, serial drug dilution assay
- protocolConditions: Trypanosoma brucei, read-out: IC50 T. b. rhod.
measuredProperty: IC50 (µM)
Enter your answer as a number in µM; do not include the unit.

Problem: Form field: IC50 recorded for CCc1nc(N)nc(N)c1-c1ccc(Cl)cc1 with T. b. rhodesiense strain STIB 900, trypomastigotes (enter value)
Result: 6.75

Problem: Form field: IC50 recorded for c1ccc(-c2ccc(C(c3ccccc3)n3ccnc3)cc2)cc1 (stereo not drawn) with T. b. rhodesiense strain STIB 900, trypomastigotes (enter value)
Result: 26.8

Problem: Form field: IC50 recorded for Nc1nc(N)c2nc(-c3ccccc3)c(N)nc2n1 with T. b. rhodesiense strain STIB 900, trypomastigotes (enter value)
Result: 21.7

Problem: Form field: IC50 recorded for CC(N)C12CC3CC(CC(C3)C1)C2 (stereo not drawn) with T. b. rhodesiense strain STIB 900, trypomastigotes (enter value)
Result: 13.8

Problem: Form field: IC50 recorded for Clc1ccc(C(OCCN2CCCCC2)c2ccccc2)cc1 (stereo not drawn) with T. b. rhodesiense strain STIB 900, trypomastigotes (enter value)
Result: 4.91

Problem: Form field: IC50 recorded for CC(=O)N1CCN(c2ccc(OCC3COC(Cn4ccnc4)(c4ccc(Cl)cc4Cl)O3)cc2)CC1 (stereo not drawn) with T. b. rhodesiense strain STIB 900, trypomastigotes (enter value)
Result: 33.1

----------
Consider the following molecules; for each one, report its log10(IC50).
- Test system: T. b. rhodesiense strain STIB 900, trypomastigotes
- protocolNotes: In vitro activity against T. b. rhodesiense, serial drug dilution assay
- protocolConditions: Trypanosoma brucei, read-out: IC50 T. b. rhod.
The figures below represent log10 of IC50, where IC50 is stated in µM.

Problem: What value of log10(IC50) has been recorded for this entry: O=C(O)c1nn(Cc2ccc(Cl)cc2Cl)c2ccccc12 [Lonidamine]
Result: 2.13

Problem: What value of log10(IC50) has been recorded for this entry: Cc1ncc([N+](=O)[O-])n1CC(C)O (stereo not drawn) [Secnidazole]
Result: 1.46

Problem: What value of log10(IC50) has been recorded for this entry: CC[C@H]1OC(=O)[C@H](C)[C@@H](O[C@H]2C[C@@](C)(OC)[C@@H](O)[C@H](C)O2)[C@H](C)[C@@H](O[C@@H]2O[C@H](C)C[C@H](N(C)C)[C@H]2O)[C@](C)(O)C[C@@H](C)C(=O)[C@H](C)[C@@H](O)[C@]1(C)O [Erythromycine (Hydrate), Erythromycine]
Result: 1.86

Problem: What value of log10(IC50) has been recorded for this entry: CC(C)(C)NC(=O)[C@@H]1C[C@@H]2CCCC[C@@H]2CN1C[C@@H](O)[C@H](Cc1ccccc1)NC(=O)[C@H](CC(N)=O)NC(=O)c1ccc2ccccc2n1 [Saquinavir]
Result: 1.09

Problem: What value of log10(IC50) has been recorded for this entry: CCN(CCCCOC(=O)c1ccc(OC)c(OC)c1)C(C)Cc1ccc(OC)cc1 (stereo not drawn) [Mebeverine]
Result: 1.73

Problem: What value of log10(IC50) has been recorded for this entry: COc1cc(C)c2c(Oc3cccc(C(F)(F)F)c3)c(OC)cc(NC(C)CCCN)c2n1 (stereo not drawn) [Tafenoquine]
Result: 0.15
